Target: SARS-Cov-2 3CLpro (Severe acute respiratory syndrome coronavirus 2, UniProt P0DTD1)
Construct: 3CLpro and HRV3C was added using a Multidrop Combi
Assay: biochemical
Details: 3CLpro, 30 mins preincubation, SAMDI-MS; read-out: SARS-Cov-2 IC50 (class)
pIC50: −log10 of the molar value.
Measured pIC50, listed per entry for reference.

- compound: "[2H]C1=C[C@@H]2C[C@H]1[C@H]1[C@@H]2CN(C(=O)[C@@H](NC(=O)C(F)(F)C(F)(F)F)C(C)(C)C)[C@@H]1C(=O)N[C@H](C#N)C[C@@H]1CCNC1=O [Compound 125]"
  pIC50: "> 7.70"
- compound: "CC(C)(C)[C@H](NC(=O)C(F)(F)F)C(=O)N1C[C@H]2[C@@H]([C@H]1C(=O)NC(C#N)CC1CCc3cnnn31)[C@H]1C=C[C@@H]2C1 (stereo partly shown) [Example 37]"
  pIC50: "6.70 to 7.70"
- compound: "CC(C)(C)[C@H](NC(=O)C(F)(F)F)C(=O)N1C[C@@H]2[C@@H]3CC[C@@H](C3)[C@@H]2[C@H]1C(=O)N[C@H](C#N)CC1Cn2nccc2NC1=O (relative stereo) [Compound 17a]"
  pIC50: "> 7.70"
- compound: "N#C[C@H](C[C@@H]1CCNC1=O)NC(=O)[C@@H]1[C@@H]2[C@H](CN1C(=O)[C@H](CC1CCC1)NC(=O)C(F)(F)F)[C@@H]1C=C[C@H]2C1 [Example 95]"
  pIC50: "> 7.70"
- compound: "CC(C)(C)[C@H](NC(=O)C(F)(F)Cl)C(=O)N1C[C@H]2[C@@H]([C@H]1C(=O)N[C@H](C#N)C[C@@H]1CCNC1=O)[C@H]1C=C[C@@H]2C1(F)F [Compound 128]"
  pIC50: "> 7.70"
- compound: "N#C[C@H](C[C@@H]1CCNC1=O)NC(=O)[C@@H]1[C@@H]2[C@H](CN1C(=O)c1cc3c(Cl)cc(Cl)cc3[nH]1)[C@@H]1C=C[C@H]2C1 [Compound 44]"
  pIC50: "6.70 to 7.70"

[Q] Returns the measured pIC50 for the input compound. Input: CC(C)(C)[C@H](NC(=O)C1(F)CCC1)C(=O)N1C[C@H]2[C@@H]([C@H]1C(=O)N[C@H](C#N)C[C@@H]1CCNC1=O)[C@H]1C=C[C@@H]2C1 [Compound 65]
[A] > 7.70

[Q] Find the recorded pIC50 belonging to CC(C)(C)[C@H](NC(=O)C(F)(F)F)C(=O)N1C[C@@H]2[C@H]3C[C@H](C[C@@H]3F)[C@@H]2[C@H]1C(=O)N[C@H](C#N)C[C@@H]1OCCNC1=O [Compound 119] and report it.
[A] 6.70 to 7.70

[Q] Could you share which pIC50 value was measured for CC(C)(C)[C@H](NC(=O)C(F)(F)F)C(=O)N1C[C@H]2[C@@H]([C@H]1C(=O)N[C@H](C#N)C[C@@H]1Oc3ccncc3NC1=O)[C@H]1C=C[C@@H]2C1 [Compound 109] ?
[A] > 7.70

[Q] I have this compound here, [2H]C([2H])([2H])C([C@H](NC(=O)C(F)(F)F)C(=O)N1C[C@H]2[C@@H]([C@H]1C(=O)N[C@H](C#N)C[C@@H]1CCNC1=O)[C@H]1C=C[C@@H]2C1)(C([2H])([2H])[2H])C([2H])([2H])[2H] [Compound 124] , and I need its recorded pIC50.
[A] > 7.70

====

pIC50: −log10 of the molar value.
As a worked illustration, we turn to pIC50 data collected for human cathepsin L (Homo sapiens).

- compound: "CC(C)(C)[C@H](NC(=O)C1(F)CC1)C(=O)N1C[C@H]2[C@@H]([C@H]1C(=O)N[C@H](C#N)C[C@@H]1CCNC1=O)[C@H]1C=C[C@@H]2C1 [Example 30]"
  pIC50: "≤ 5.00"
- compound: "CC1(C(NC(=O)C(F)(F)F)C(=O)N2C[C@H]3[C@@H]([C@H]2C(=O)N[C@H](C#N)C[C@@H]2CCNC2=O)[C@H]2C=C[C@@H]3C2)CC1 (stereo partly drawn) [Example 24]"
  pIC50: "≤ 5.00"

[Q] Form: Entry = O=C(NC1CC1)C(=O)C(C[C@@H]1CCNC1=O)NC(=O)[C@@H]1[C@@H]2[C@H](CN1C(=O)c1nc3c(Cl)ccc(Cl)c3[nH]1)[C@@H]1C=C[C@H]2C1 (stereo partly drawn) [Compound 45] | System = human cathepsin L (Homo sapiens) | pIC50 = ____
[A] ≤ 5.00

====

Target: HRV3C (Human rhinovirus 14, UniProt P03303)
Construct: 3CLpro and HRV3C was added using a Multidrop Combi
Sequence (P03303 1538-1719): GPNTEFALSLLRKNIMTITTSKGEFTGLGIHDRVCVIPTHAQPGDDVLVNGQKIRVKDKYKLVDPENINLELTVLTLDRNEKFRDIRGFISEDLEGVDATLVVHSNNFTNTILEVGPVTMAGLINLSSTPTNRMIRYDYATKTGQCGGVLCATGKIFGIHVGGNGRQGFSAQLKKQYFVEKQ
Assay: biochemical
Design: species or system HRV
Settings: HRV3C, 30 mins preincubation, SAMDI-MS; read-out: HRV IC50 (class)
pIC50: −log10 of the molar value.
The entries below are paired with their reported pIC50.

- molecule: "CC(C)(C)[C@H](NC(=O)C(F)(F)F)C(=O)N1C[C@H]2[C@@H]([C@H]1C(=O)NC(C[C@@H]1CCNC1=O)C(=O)C(=O)NC1CC1)[C@H]1C=C[C@@H]2C1 (stereo partly shown) [Example 10]"
  pIC50: "6.70 to 7.70"
- molecule: "O=C(NC1CC1)C(=O)C(C[C@@H]1CCNC1=O)NC(=O)[C@@H]1[C@@H]2[C@H](CN1C(=O)c1nc3c(Cl)ccc(Cl)c3[nH]1)[C@@H]1C=C[C@H]2C1 (stereo partly shown) [Compound 45]"
  pIC50: "4.70 to 5.70"
- molecule: "O=C(NC1CC1)C(=O)C(C[C@@H]1CCNC1=O)NC(=O)[C@@H]1[C@@H]2[C@H](CN1C(=O)c1cc3c(Cl)cc(Cl)cc3[nH]1)[C@@H]1C=C[C@H]2C1 (stereo partly shown) [Compound 46]"
  pIC50: "5.70 to 6.70"

[Q] pIC50 lookup needed for O=C(NC1CC1)C(=O)C(C[C@@H]1CCNC1=O)NC(=O)[C@@H]1[C@@H]2[C@H](CN1C(=O)[C@@H]1C[C@]13CCCc1ccccc13)[C@@H]1C=C[C@H]2C1 (stereo partly shown) [Example 11] , thanks.
[A] 5.70 to 6.70

====

Reported pEC50 values are given for each entry in this list.
System: human beta-coronavirus OC43
Experiment: OC43 coronavirus antiviral assay in HeLa cells (cytopathic effect, cell-titer-glo)
Assay type: cell-based
Details: Betacoronavirus 1, OC43, HeLa, 144 h, 6 days at 33° C., read-out: EC50 (class)
pEC50: −log10 of the molar value.

- compound: "CC(C)(C)[C@H](NC(=O)C(F)(F)F)C(=O)N1C[C@H]2[C@@H]([C@H]1C(=O)N[C@H](C#N)C[C@@H]1CC3(CC3)NC1=O)[C@H]1C=C[C@@H]2C1"
  measured.attribute: "pEC50"
  result.value: "> 7.00"
- compound: "CC(C)(C)[C@H](NC(=O)C(F)(F)F)C(=O)N1C[C@@H]2[C@@H]3CC[C@@H](C3)[C@@H]2[C@H]1C(=O)N[C@H](C#N)C[C@@H]1CCNC1=O"
  measured.attribute: "pEC50"
  result.value: "> 7.00"

[Q] Query: pEC50; subject: CC(C)(C)[C@H](NC(=O)C(F)(F)F)C(=O)N1C[C@H]2[C@@H]([C@H]1C(=O)N[C@H](C#N)C[C@@H]1CCNC1=O)[C@H]1C=C[C@@H]2C1F (stereo in doubt)
[A] > 7.00

[Q] Query: pEC50; subject: CC(C)(C)[C@H](NC(=O)C(F)(F)F)C(=O)N1C[C@H]2[C@@H]([C@H]1C(=O)N[C@H](C#N)C[C@@H]1Oc3cnccc3NC1=O)[C@H]1C=C[C@@H]2C1
[A] > 7.00

[Q] Report pEC50 for CC(C)(C)[C@H](NC(=O)C(F)(F)F)C(=O)N1C[C@H]2[C@@H]([C@H]1C(=O)N[C@H](C#N)C[C@@H]1Oc3ccccc3NC1=O)[C@H]1C=C[C@@H]2C1 please.
[A] 6.00 to 7.00

====

Listed next: entries and their corresponding pIC50.
Target: SARS-Cov-2 3CLpro (Severe acute respiratory syndrome coronavirus 2, UniProt P0DTD1)
Construct: 3CLpro and HRV3C was added using a Multidrop Combi
Test: biochemical
Details: read-out: SARS-Cov-2 IC50 (class)
pIC50: −log10 of the molar value.

Worked cases, answers included:
- compound: "CC(C)(C1CC1)[C@H](NC(=O)C(F)(F)F)C(=O)N1C[C@H]2[C@@H]([C@H]1C(=O)N[C@H](C#N)C[C@@H]1CCNC1=O)[C@H]1C=C[C@@H]2C1"
  pIC50: "> 7.70"
- compound: "C[C@@H](OC(C)(C)C)[C@H](NC(=O)C(F)(F)F)C(=O)N1C[C@H]2[C@@H]([C@H]1C(=O)N[C@H](C#N)C[C@@H]1CCNC1=O)[C@H]1C=C[C@@H]2C1"
  pIC50: "> 7.70"
- compound: "CC(C)(C)[C@H](NC(=O)C(F)(F)F)C(=O)N1C[C@@H]2[C@H]3C[C@@H]([C@@H]2[C@H]1C(=O)N[C@H](C#N)C[C@@H]1CCNC1=O)C(F)(F)C3"
  pIC50: "> 7.70"
- compound: "CC(C)(C)[C@H](NC(=O)C(F)(Cl)Cl)C(=O)N1C[C@H]2[C@@H]([C@H]1C(=O)N[C@H](C#N)C[C@@H]1CCNC1=O)[C@H]1C=C[C@@H]2C1"
  pIC50: "> 7.70"
- compound: "CC(C)(C)[C@H](NC(=O)C(F)(F)F)C(=O)N1C[C@@H]2[C@H]3C[C@@H]([C@@H]2[C@H]1C(=O)N[C@H](C#N)C[C@@H]1CCNC1=O)[C@H](F)C3"
  pIC50: "> 7.70"
- compound: "CC(C)(C)[C@H](NC(=O)c1cnccn1)C(=O)N1C[C@H]2[C@@H]([C@H]1C(=O)N[C@H](C#N)C[C@@H]1CCNC1=O)[C@H]1C=C[C@@H]2C1"
  pIC50: "6.70 to 7.70"

Shifting focus to the compound that follows.
[Q] Consider the compound shown here: C=C1C[C@@H]2C[C@H]1[C@H]1[C@@H]2CN(C(=O)[C@@H](NC(=O)C(F)(F)F)C(C)(C)C)[C@@H]1C(=O)N[C@H](C#N)C[C@@H]1CCNC1=O What is its recorded pIC50?
[A] > 7.70
